- METHOD NOTES: Toxicokinetics after escalating intravenous doses of CKLP1 in beagles
- Assay type: in vivo, beagle dog
- RUN CONDITIONS: female, beagle, dog, in vivo, iv, 0.5 mg/kg
PARAMETER MEASURED: AUC(0-t) (ng·h/mL)
One number for each entry, in ng·h/mL.

Identify AUC(0-t) associated with the molecule CC1(C)Oc2ccc(C#N)cc2[C@@H](N2CCCC2=O)[C@@H]1OP(=O)(O)O 20900

* * *

- METHOD NOTES: Toxicokinetics after escalating intravenous doses of CKLP1 in beagles
- Type: in vivo, beagle dog
- RUN CONDITIONS: female, beagle, dog, in vivo, iv, 0.5 mg/kg
PARAMETER MEASURED: half-life (h)
Give bare numbers, in h.

Check the records and state half-life for CC1(C)Oc2ccc(C#N)cc2[C@@H](N2CCCC2=O)[C@@H]1OP(=O)(O)O 4.11

* * *

- METHOD NOTES: Toxicokinetics after escalating intravenous doses of CKLP1 in beagles
- Format: in vivo, beagle dog
- RUN CONDITIONS: female, beagle, dog, in vivo, iv, 5 mg/kg
PARAMETER MEASURED: Vd (L/kg)
Give bare numbers, in L/kg.

Specify Vd for CC1(C)Oc2ccc(C#N)cc2[C@@H](N2CCCC2=O)[C@@H]1OP(=O)(O)O and stop. 0.131

* * *

- METHOD NOTES: Toxicokinetics after escalating intravenous doses of CKLP1 in beagles
- Type: in vivo, beagle dog
- RUN CONDITIONS: female, beagle, dog, in vivo, iv, 1.5 mg/kg
PARAMETER MEASURED: AUC(0-t)

Supply measured AUC(0-t) of CC1(C)Oc2ccc(C#N)cc2[C@@H](N2CCCC2=O)[C@@H]1OP(=O)(O)O in your reply. 61200 ng·h/mL

* * *

- METHOD NOTES: Toxicokinetics after escalating intravenous doses of CKLP1 in beagles
- Format: in vivo, beagle dog
- RUN CONDITIONS: female, beagle, dog, in vivo, iv, 0.05 mg/kg
PARAMETER MEASURED: clearance (mL/min/kg)
Give bare numbers, in mL/min/kg.

Please report clearance for the following compound: CC1(C)Oc2ccc(C#N)cc2[C@@H](N2CCCC2=O)[C@@H]1OP(=O)(O)O 0.395

* * *

- METHOD NOTES: Toxicokinetics after escalating intravenous doses of CKLP1 in beagles
- Assay type: in vivo, beagle dog
- RUN CONDITIONS: male, beagle, dog, in vivo, iv, 5 mg/kg
PARAMETER MEASURED: half-life (h)
One number for each entry, in h.

Complete the entry with half-life for CC1(C)Oc2ccc(C#N)cc2[C@@H](N2CCCC2=O)[C@@H]1OP(=O)(O)O 3.47

* * *

Exercise: state measured Tmax for each of the compounds provided.
- METHOD NOTES: Toxicokinetics after escalating intravenous doses of CKLP1 in beagles
- Format: in vivo, beagle dog
- RUN CONDITIONS: male, beagle, dog, in vivo, iv, 3 mg/kg
Numbers only, in h.

CC1(C)Oc2ccc(C#N)cc2[C@@H](N2CCCC2=O)[C@@H]1OP(=O)(O)O [CKLP1] | 1

Please look at this compound and report its Tmax: CC1(C)Oc2ccc(C#N)cc2[C@@H](N2CCCC2=O)[C@@H]1O [Levcromakalim, levcromakalim, reference compound] 1.00

The reported measurements were obtained from patent US20220387457A1.
